Molecular target: Neuronal acetylcholine receptor; alpha4/beta2 (Homo sapiens, UniProt P17787+P43681)
Test: Antagonist activity at human high sensitive and low sensitive alpha4beta2 nAChR expressed in SH-EP1 cells assessed as inhibition of carbamylcholine induced 86Rb+ ion efflux preincubated for 10 mins prior to carbamylcholine-induction measured after 5 mins by flip-plate technique relative to control
Assay type: functional, cell-based
Could you mark each record criterion met if its Efficacy falls strictly under 80%, and criterion not met if it equals or exceeds it?

{"structureSmiles": "OCCCCC#Cc1cncc(OC[C@@H]2CCN2)c1", "target": "Neuronal acetylcholine receptor; alpha4/beta2 (Homo sapiens, UniProt P17787+P43681)", "discreteLabel": "criterion met"}
{"structureSmiles": "CN(C)C(=O)OCC[C@H]1C[C@@H]1c1cncc(OC[C@@H]2CCN2)c1", "target": "Neuronal acetylcholine receptor; alpha4/beta2 (Homo sapiens, UniProt P17787+P43681)", "discreteLabel": "criterion not met"}
{"structureSmiles": "COCC[C@H]1C[C@@H]1c1cncc(OC[C@@H]2CCN2)c1", "target": "Neuronal acetylcholine receptor; alpha4/beta2 (Homo sapiens, UniProt P17787+P43681)", "discreteLabel": "criterion met"}
{"structureSmiles": "COCC[C@@H]1C[C@H]1c1cncc(OC[C@@H]2CCN2)c1", "target": "Neuronal acetylcholine receptor; alpha4/beta2 (Homo sapiens, UniProt P17787+P43681)", "discreteLabel": "criterion met"}
{"structureSmiles": "O=C(OCC[C@H]1C[C@@H]1c1cncc(OC[C@@H]2CCN2)c1)N1CCCC1", "target": "Neuronal acetylcholine receptor; alpha4/beta2 (Homo sapiens, UniProt P17787+P43681)", "discreteLabel": "criterion not met"}
{"structureSmiles": "OCC[C@H]1C[C@@H]1c1cncc(OC[C@@H]2CCN2)c1", "target": "Neuronal acetylcholine receptor; alpha4/beta2 (Homo sapiens, UniProt P17787+P43681)", "discreteLabel": "criterion met"}
{"structureSmiles": "OCC[C@@H]1C[C@H]1c1cncc(OC[C@@H]2CCN2)c1", "target": "Neuronal acetylcholine receptor; alpha4/beta2 (Homo sapiens, UniProt P17787+P43681)", "discreteLabel": "criterion met"}
{"structureSmiles": "O=C(Nc1ccccc1)OCC[C@H]1C[C@@H]1c1cncc(OC[C@@H]2CCN2)c1", "target": "Neuronal acetylcholine receptor; alpha4/beta2 (Homo sapiens, UniProt P17787+P43681)", "discreteLabel": "criterion not met"}
{"structureSmiles": "CNC(=O)OCC[C@H]1C[C@@H]1c1cncc(OC[C@@H]2CCN2)c1", "target": "Neuronal acetylcholine receptor; alpha4/beta2 (Homo sapiens, UniProt P17787+P43681)", "discreteLabel": "criterion not met"}
